# System: SF-295 CNS
# Assay summary: NCI-60 one-dose screen, 48 h (100 = growth as untreated, 0 = no growth, -100 = all killed)
# Run conditions: 10 µM unless noted
This is part of a sample that, as a whole, favours compounds with a hit. Of some 83,000 tested, about 20% had one in any assay. Activity calls are given as the source filed them. How the source made its calls: active means growth percent below 10; inactive means the rest.
Outcome measure: growth

Smiles input	growth
Cc1cc2c3ccccc3ccc2[n+]2ccccc12	22.6% (inactive)
COc1ccc(NC2=C(Sc3nc(C)cc(C)n3)C(=O)N(Cc3ccccc3)C2=O)cc1Cl	39.6% [30 µM] (inactive)
COc1cccc(-c2nn(C(C)(C)C)cc2-c2ccnc(NCCCNS(=O)(=O)c3cccc4ccccc34)c2)c1	101% (inactive)

Field: next molecule
Sure, the documented growth for `CC(C)(C)CC(C)(C)c1ccc(OCCOCC[N+](C)(C)Cc2ccccc2)cc1` is 41.8% (inactive)

====

# System: IGROV1 ovarian
# Assay summary: NCI-60 one-dose screen, 48 h (100 = growth as untreated, 0 = no growth, -100 = all killed)
# Run conditions: 10 µM unless noted
This is part of a sample that, as a whole, favours compounds with a hit. Of some 83,000 tested, about 20% had one in any assay.
Is growth at least 80%? Then Satisfied. If not, Not satisfied.

Smiles input	Discrete label
COc1cc(-c2nc(C(=O)NCC(=O)NO)nn2-c2ccc(Cl)cc2)cc(OC)c1OC	Satisfied
COc1ccc2nc(NC(=O)CSc3nnc4n3S(=O)(=O)c3ccccc3N4c3ccccc3)sc2c1	Not satisfied

Textbook exercise: given the entry `Cn1cc(-c2nonc2-c2cn(C)c3ccc(F)cc23)c2ccccc21` , state whether its growth is greater than or equal to 80%.
Not satisfied

====

# Test system: NCI-H226 lung
# Assay summary: NCI-60 one-dose screen, 48 h
# Run conditions: 10 µM unless noted
Compounds without any hit were thinned out: in the full panel of roughly 83,000, 20% have a hit. Activity calls are given as the source filed them. The calls were made as follows: active = growth percent below 10; inactive = the rest.
Pick from active, inactive when you respond.

Compound	System	Discrete label
CCOC(=O)n1cc(-c2nonc2-c2cn(C)c3ncccc23)c2cc(F)ccc21	NCI-H226 lung	inactive
CCOC(=O)c1c(C)oc2ncnc(N3CCN(C(=S)Nc4ccccc4)CC3)c12	NCI-H226 lung	inactive
Cc1cc(C)nc(SC2=C(Nc3ccc(C)c(Cl)c3)C(=O)N(Cc3ccccc3)C2=O)n1	NCI-H226 lung	inactive
COc1ccc(Nc2cc(C)nc(N3CCN(c4ccnc5cc(Cl)ccc45)CC3)n2)cc1	NCI-H226 lung	inactive
O=C(N(c1ccccc1)c1ccccc1)n1ccc2nc(Cl)nc(Cl)c21	NCI-H226 lung	inactive
Fc1ccc(CNc2cccc3[nH]c(C(F)(F)F)nc23)cc1	NCI-H226 lung	inactive

Call for entry `COc1ccc(C(=S)N2CCN(c3cccc(Cl)c3)CC2)cc1` :
inactive

Per the assay record, what outcome was assigned to `COc1ccc(C(=O)COc2ccc(/C=C3\Oc4ccc(OC)cc4C3=O)cc2)cc1` ?
inactive

Returns: the outcome recorded for Cc1ccc2c(C(C[N+](=O)[O-])c3ccco3)c(-c3ccccc3)[nH]c2c1 (stereo not drawn) in this assay.
inactive

Short answer needed: outcome of this test for `O=C(O)c1ccc(N=CC(=O)c2ccc(-c3ccccc3)cc2)cc1` ?
inactive

Please state the recorded outcome for this compound: c1csc(C2=NN3C(C2)c2ccccc2OC3c2ccncc2)c1 (stereo not drawn)
inactive

Test call, this compound: `Cc1ccccc1COc1ccc(-c2onc(C)c2-c2ccc(Cl)cc2)cc1`
inactive

For this compound, state the assay outcome: Cc1ccc2oc(=O)cc(C3c4ccc([nH]4)C(c4cc(=O)oc5ccc(C)cc45)c4ccc([nH]4)C(c4cc(=O)oc5ccc(C)cc45)c4ccc([nH]4)C(c4cc(=O)oc5ccc(C)cc45)c4ccc3[nH]4)c2c1 (stereo not drawn)
active

# outcome recorded in this test, key = `Brc1ccc(-c2csc(Nc3ccccn3)n2)cc1`
inactive

Dear colleague, could you share the recorded outcome for `COc1ccc(-c2nc3ccc(-c4nc5ccc(N6CCN(C)CC6)cc5[nH]4)cc3[nH]2)cc1OC` when you have a moment?
inactive

Look up the recorded call for `CCOC(=O)c1c(C)oc2ncnc(N3CCN(C(=O)COc4ccc(SC)cc4)CC3)c12` in this test.
inactive

Field: outcome | Entry: `CCc1nnc(CNc2ccc(Cl)cc2)o1`
inactive

Record lookup: outcome of this test for `O=C1Nc2c(ccc(Cl)c2Cl)/C1=C\c1ccc(C(F)(F)F)cc1` ?
inactive

Would you mind telling me which call this test gave `CCCN1CCN(c2ccc3nc(-c4ccc5nc(-c6ccc(OCC)cc6)[nH]c5c4)[nH]c3c2)CC1` ?
inactive

Recorded test call requested for `Cc1cc(N2CCOCC2)nc(NCc2cc(Nc3ccnc4cc(Cl)ccc34)ccc2F)n1`
inactive

Given COc1cccc(C2=NN3C(C2)c2cc(Br)cc(OC)c2OC32CCN(Cc3ccccc3)CC2)c1 (stereo not drawn) , state the outcome it received in this test.
inactive

So what was the verdict on Nc1n[nH]c2ccc([C@@H]3Nc4ccc5cn[nH]c5c4[C@H]4C5CCC(C5)[C@@H]34)cc12 (stereo partly drawn) in this test?
inactive

Tell me the recorded outcome of this test for `O=C1CC(=NCC(=O)n2c(-c3ccccc3)nc3ccccc32)NN1` .
inactive
